Target under test: Type-2 angiotensin II receptor (Oryctolagus cuniculus)
Protocol text: In vitro binding affinity at angiotensin II (type 2) receptor in rabbit uterus.
*1 amine or outer side, *2 acyl side, *3 side chain or, on linkers, in order; H or OH if unused. Where a SMILES comes first, the peptide text is derived from it. Bridges are numbered along the chain shown (N, C = ends). Roman numbers before positions name the chains, in order. [ ]: non-standard residue; d: D form. Pro(4R-SH) = O=C([C@@H]1C[C@@H](S[*:3])CN1[*:1])[*:2]; Pro(4S-SH) = O=C([C@@H]1C[C@H](S[*:3])CN1[*:1])[*:2]; hCys = N[C@@H](CCS)C(=O)O; Sar = CNCC(=O)O
Parameter: IC50 (nM)

1) CNCC(=O)N[C@@H](CCCN=C(N)N)C(=O)N[C@H]1CC(=O)NCCCC[C@@H](C(=O)N[C@@H](Cc2c[nH]cn2)C(=O)N2CCC[C@H]2C(=O)N[C@@H](Cc2ccccc2)C(=O)O)NC(=O)[C@H](Cc2ccc(O)cc2)NC1=O (H-[Sar]RDYKHPF-OH; lactam 3-5) ... 86
2) CNCC(=O)N[C@@H](CCCN=C(N)N)C(=O)N[C@H]1CSSC[C@@H](C(=O)N[C@@H](Cc2c[nH]cn2)C(=O)N2CCC[C@H]2C(=O)N[C@@H](Cc2ccccc2)C(=O)O)NC(=O)[C@H](Cc2ccc(O)cc2)NC(=O)[C@@H](NC(=O)[C@H](CCCN=C(N)N)NC(=O)CNC)CSSC[C@@H](C(=O)N[C@@H](Cc2c[nH]cn2)C(=O)N2CCC[C@H]2C(=O)N[C@@H](Cc2ccccc2)C(=O)O)NC(=O)[C@H](Cc2ccc(O)cc2)NC1=O (I: H-[Sar]RCYCHPF-OH / II: H-[Sar]RCYCHPF-OH; disulfide I:3-II:5, I:5-II:3) ... 65
3) CNCC(=O)N[C@@H](CCCNC(=N)N)C(=O)N1C[C@@H]2C[C@H]1C(=O)N[C@@H](Cc1ccc(O)cc1)C(=O)N[C@H](C(=O)N[C@@H](Cc1cnc[nH]1)C(=O)N1CCC[C@H]1C(=O)N[C@@H](Cc1ccccc1)C(=O)O)CSSC[C@H](C(=O)N[C@H](Cc1cnc[nH]1)C(=O)N1CCC[C@@H]1C(=O)N[C@H](Cc1ccccc1)C(=O)O)NC(=O)[C@@H](Cc1ccc(O)cc1)NC(=O)[C@H]1C[C@H](CN1C(=O)[C@@H](CCCNC(=N)N)NC(=O)CNC)SS2 ... 23
4) CNCC(=O)N[C@@H](CCCNC(=N)N)C(=O)N[C@H]1CCSSCC[C@@H](C(=O)N[C@@H](Cc2cnc[nH]2)C(=O)N2CCC[C@H]2C(=O)N[C@@H](Cc2ccccc2)C(=O)O)NC(=O)[C@H](Cc2ccc(O)cc2)NC1=O (H-[Sar]R[hCys]Y[hCys]HPF-OH; disulfide 3-5) ... 80
5) CNCC(=O)N[C@@H](CCCNC(=N)N)C(=O)N[C@H]1CCSS[C@H]2C[C@@H](C(=O)N[C@@H](Cc3cnc[nH]3)C(=O)N3CCC[C@H]3C(=O)N[C@@H](Cc3ccccc3)C(=O)O)N(C2)C(=O)[C@H](Cc2ccc(O)cc2)NC1=O (H-[Sar]R[hCys]Y[Pro(4S-SH)]HPF-OH; disulfide 3-5) ... 9.1
6) CNCC(=O)N[C@@H](CCCNC(=N)N)C(=O)N1C[C@@H]2C[C@H]1C(=O)N[C@@H](Cc1ccc(O)cc1)C(=O)N[C@H](C(=O)N[C@@H](Cc1cnc[nH]1)C(=O)N1CCC[C@H]1C(=O)N[C@@H](Cc1ccccc1)C(=O)O)CSS2 (H-[Sar]R[Pro(4S-SH)]YCHPF-OH; disulfide 3-5) ... 12
7) CNCC(=O)N[C@@H](CCCNC(=N)N)C(=O)N[C@H]1CSS[C@@H]2C[C@@H](C(=O)N[C@@H](Cc3cnc[nH]3)C(=O)N3CCC[C@H]3C(=O)N[C@@H](Cc3ccccc3)C(=O)O)N(C2)C(=O)[C@H](Cc2ccc(O)cc2)NC1=O (H-[Sar]RCY[Pro(4R-SH)]HPF-OH; disulfide 3-5) ... 0.82
